These entries and their values trace back to the RNAGym collection of RNA variant scans (doi:10.1073/pnas.2313332121).

B1: TPR 5TU (parent)
chain: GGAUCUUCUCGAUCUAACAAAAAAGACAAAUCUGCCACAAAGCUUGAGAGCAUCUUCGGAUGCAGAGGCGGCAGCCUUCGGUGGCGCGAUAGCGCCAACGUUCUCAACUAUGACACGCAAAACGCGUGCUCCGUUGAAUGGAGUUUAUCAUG

variants of: B1; test: polymerase ribozyme fitness, log enrichment relative to wild type (log ratio); higher = more active; in vitro selection for triplet polymerase activity
Variants at the floor of the assay were thinned out.
In this section we review reported polymerase ribozyme fitness (log ratio) values for a set of variants.
observable: polymerase ribozyme fitness (log ratio)

> print(dat)
                               variant.label                               observable  value.observed
 1                 C10A A23U C35G C95G G128A  polymerase ribozyme fitness (log ratio)          ≤ -4.2
 2    A40C G88U C96U A122U U127G U148A A150U  polymerase ribozyme fitness (log ratio)          ≤ -4.2
 3  A30U G42A C85U A89G C99A A107C A122U C125A U144C C149A  polymerase ribozyme fitness (log ratio)          ≤ -4.2
 4                A16U U56A G83A U109C U111G  polymerase ribozyme fitness (log ratio)          ≤ -4.2
 5                A24G C69A A91U A138U G143U  polymerase ribozyme fitness (log ratio)          ≤ -4.2
 6                      U44A U53C G86A A147C  polymerase ribozyme fitness (log ratio)          ≤ -4.2
 7           A16U G74A G84U U90C C118U A121U  polymerase ribozyme fitness (log ratio)          ≤ -4.2
 8                     U61C C85A A121G U135A  polymerase ribozyme fitness (log ratio)          ≤ -4.2
 9                      C32G A40U C57U U135G  polymerase ribozyme fitness (log ratio)          ≤ -4.2
10         U82C C93G C116G C118U G140A A150C  polymerase ribozyme fitness (log ratio)          ≤ -4.2
11                                 U53A A66U  polymerase ribozyme fitness (log ratio)          ≤ -4.2
12                       A21G G48A C54U G92A  polymerase ribozyme fitness (log ratio)          ≤ -4.2
13                 C14G A40G A73G C85U U139A  polymerase ribozyme fitness (log ratio)          ≤ -4.2
14                       A52U A66G C87G A97G  polymerase ribozyme fitness (log ratio)          ≤ -4.2
15                A26U U78A C96A C116U U146C  polymerase ribozyme fitness (log ratio)          ≤ -4.2
16            A24U G58A A66U C87A U90G U146C  polymerase ribozyme fitness (log ratio)          ≤ -4.2
17              A3U U7A A37U G67U A91C G143A  polymerase ribozyme fitness (log ratio)          ≤ -4.2
18      U33G G50A A52C C76U C79U A107G U151A  polymerase ribozyme fitness (log ratio)          ≤ -4.2
19      A22U A30U C32A U78G G88A G117U U139G  polymerase ribozyme fitness (log ratio)          ≤ -4.2
20                G11C A52G G84A G133C G141A  polymerase ribozyme fitness (log ratio)          ≤ -4.2
21       A41C C51A U56A G58C U82C C87A G136U  polymerase ribozyme fitness (log ratio)          ≤ -4.2
22                                C85A G112U  polymerase ribozyme fitness (log ratio)          ≤ -4.2
23                       C43U U56A C72A C85A  polymerase ribozyme fitness (log ratio)          ≤ -4.2
24  A39G G42C A47C A91U C93U U101G A119U C125U G133U G136A  polymerase ribozyme fitness (log ratio)          ≤ -4.2
25           A17C A40G G50C C57U C108U G133C  polymerase ribozyme fitness (log ratio)          ≤ -4.2
26     A52U U56A A66U C93A C123G G143A U146A  polymerase ribozyme fitness (log ratio)          ≤ -4.2
27                                 A23G C57U  polymerase ribozyme fitness (log ratio)           -2.27
28      A20C A28U G48C G70A C87G A120G U135C  polymerase ribozyme fitness (log ratio)          ≤ -4.2
29  G11A C54U U55A G74A A89G G92C C105G G112A U144G  polymerase ribozyme fitness (log ratio)          ≤ -4.2
30                     A40C C85U G133C A142G  polymerase ribozyme fitness (log ratio)           -3.92
31              C8G A22C A24U C69U A73U C93U  polymerase ribozyme fitness (log ratio)          ≤ -4.2
32            A26U G48C A49U A64C U90G A137G  polymerase ribozyme fitness (log ratio)           -4.11
33                                 G42A U55A  polymerase ribozyme fitness (log ratio)           -3.81
34            C14G A21C C54A G67A G94U C123U  polymerase ribozyme fitness (log ratio)          ≤ -4.2
35                            A60C U82G G84A  polymerase ribozyme fitness (log ratio)           -1.71
36                                C51G A106G  polymerase ribozyme fitness (log ratio)           -3.04
37                                A47U G126C  polymerase ribozyme fitness (log ratio)         -0.0812
38  U31G U53G G70U A89U C93U C114A C123G U135C G152U  polymerase ribozyme fitness (log ratio)          ≤ -4.2
39                     C54A C96G C105U U144C  polymerase ribozyme fitness (log ratio)           -2.85
40      U9A A39C U53G G92A G112C A113G C149G  polymerase ribozyme fitness (log ratio)          ≤ -4.2
41                      G59C G86C C96U A121U  polymerase ribozyme fitness (log ratio)           -3.29
42                                C99A C116U  polymerase ribozyme fitness (log ratio)          -0.602
43               U55A G81C C118G G141A U146A  polymerase ribozyme fitness (log ratio)           -2.94
44       C35A A49C U56C G71A C72U G92A A115C  polymerase ribozyme fitness (log ratio)           -3.21
45  C10A A24C G71A U77G G94A C99A C125U G140C  polymerase ribozyme fitness (log ratio)          ≤ -4.2
46                          C35U G136A G143U  polymerase ribozyme fitness (log ratio)           -3.68
47      U9G A37U C57U C85U G128A G141A U146A  polymerase ribozyme fitness (log ratio)          ≤ -4.2
48                     A37U C85G C125U G141A  polymerase ribozyme fitness (log ratio)          ≤ -4.2
49                                 U55G A97G  polymerase ribozyme fitness (log ratio)          0.0201
50     A16U C27U C57A C93A A107C C125A U146G  polymerase ribozyme fitness (log ratio)          ≤ -4.2
51  U9C C38U C51U A52G G74C C85G G143C U145A  polymerase ribozyme fitness (log ratio)          ≤ -4.2
52                      A17G G58C C72U G152A  polymerase ribozyme fitness (log ratio)           -2.87
53           A12C C14U U55A A98G C103G G133A  polymerase ribozyme fitness (log ratio)          ≤ -4.2
54                            A19U U45A G83C  polymerase ribozyme fitness (log ratio)           -3.67
55                         A122G G124A U127A  polymerase ribozyme fitness (log ratio)           -3.53
56                                 A29C U53A  polymerase ribozyme fitness (log ratio)          ≤ -4.2
57                          C96U A113U G124U  polymerase ribozyme fitness (log ratio)           -2.41
58                   C8G G11A A52G A89U C93G  polymerase ribozyme fitness (log ratio)          ≤ -4.2
59                       C38U U55G G84C A98U  polymerase ribozyme fitness (log ratio)              -1
60                 G67C G68A G83A U90A G117A  polymerase ribozyme fitness (log ratio)          ≤ -4.2
61                   U7A A24C G50U A52U C87G  polymerase ribozyme fitness (log ratio)          ≤ -4.2
